- Test system: Wistar (Crl:WI(Han)) rats
- experiment: Mass spectrometry-based plasma metabolite profiling of rats treated with known inducers of thyroid function impairment
- Format: in vivo, rat
- measurementContext: male rats, mh14 (study day 14), ratio of group medians vs controls, Table 4
parameter: Stearic acid (C18:0)
Answer with a number only.

{"columns": ["compound", "targetOrSystem", "parameter", "measured"],
 "data": [
  ["CCC1(c2ccccc2)C(=O)NC(=O)NC1=O [Phenobarbital sodium]", "Wistar (Crl:WI(Han)) rats", "Stearic acid (C18:0)", 1.19],
  ["Cn1cc[nH]c1=S", "Wistar (Crl:WI(Han)) rats", "Stearic acid (C18:0)", 1.40],
  ["Cc1cccc(C)c1N(Cn1cccn1)C(=O)CCl", "Wistar (Crl:WI(Han)) rats", "Stearic acid (C18:0)", 2.36]
]}

Now look at this entry.
Look up Stearic acid (C18:0): `CCC(CC)Nc1c([N+](=O)[O-])cc(C)c(C)c1[N+](=O)[O-]`
2.28
